This collection of values is drawn from ChEMBL document CHEMBL1201862.

Test system: CCRF-CEM
Procedure details: NCI tumour cell line growth inhibition, 48 h
The source made the active and inactive calls. Rule as the data show it: active = GI50 up to about 1.1 µM and inactive = higher.
Respond only with the outcome that fits, drawn from class 1 = active, class 0 = inactive

{"Compound": "COc1ccc(-c2oc(/C=N/NC(N)=S)c([N+](=O)[O-])c2-c2ccc(OC)c(OC)c2)cc1OC", "Assigned category": "class 0"}
{"Compound": "COc1ccc(N2C(=O)c3cccnc3S2(=O)=O)cc1", "Assigned category": "class 0"}

With those in mind, consider the next compound.
Qu. Please share the test call associated with O=S(=O)(O)c1cc(Nc2ccnc3ccccc23)c2c(S(=O)(=O)O)cc(S(=O)(=O)O)cc2c1 .
Ans. class 0

---

System: U-251
Procedure details: NCI tumour cell line growth inhibition, 48 h
Active and inactive are the calls of the source. Rule as the data show it: active = GI50 up to about 1.1 µM and inactive = higher.
Endpoint label: GI50

Previously resolved entries follow.
{"Compound": "O=S(=O)(O)c1cc(Nc2ccnc3ccccc23)c2c(S(=O)(=O)O)cc(S(=O)(=O)O)cc2c1", "Endpoint value": "> 100 µM (inactive)"}
{"Compound": "CN(C)CCNC(=O)C1COc2cc(-c3cc(=O)c4ccccc4o3)ccc2O1 (stereo not given)", "Endpoint value": "20.1 µM (inactive)"}

Record summary for C[N+](C)(C)Cc1c(CC#N)[nH]c2ccccc12 : reported GI50 = > 100 µM (inactive)

Record summary for Cc1ccc(S(=O)(=O)N2CCC2c2ccccc2)cc1 (stereo not given) : reported GI50 = > 100 µM (inactive)

Record summary for COc1cccc(C23CCCC(C2)N(C)CC3OC(=O)c2ccccc2)c1OC (stereo not given) : reported GI50 = 28.3 µM (inactive)

---

Tested on: OVCAR-5
Procedure details: NCI tumour cell line growth inhibition, 48 h
Calls of active or inactive are those of the source. No stated cut-off is given here; in the data, active = GI50 up to about 1.1 µM and inactive = higher.
Respond only with the outcome that fits, drawn from active, inactive

{"Compound": "CC(C)OC(=O)C1(C(C)C)CCc2ccc(C(=O)CCC(=O)O)cc21 (centres undefined)", "Assigned category": "inactive"}
{"Compound": "CC(C)CC(NP(=O)(O)OC1OC(C)C(O)C(O)C1O)C(=O)NC(Cc1c[nH]c2ccccc12)C(=O)O (centres undefined)", "Assigned category": "inactive"}
{"Compound": "O=c1[nH]c(=O)n([C@@H]2O[C@H](CO)[C@@H](O)[C@@H]2F)cc1I", "Assigned category": "inactive"}
{"Compound": "CCC(=O)CCC1=Nc2nnc(CCCCc3nnc4n3C(=O)C(CCC(=O)CC)=N4)n2C1=O", "Assigned category": "inactive"}
{"Compound": "O=C1C2=C(c3ccccc31)C(c1ccc(F)cc1)N1C(=O)CCSC1=N2 (centres undefined)", "Assigned category": "inactive"}

Qu. Please share the test call associated with COC(=O)CC(=O)Nc1sccc1S(=O)(=O)c1ccccc1 .
Ans. inactive

Qu. Please share the test call associated with Nc1ccc(S(=O)(=O)Nc2ccc(Nc3c4ccccc4nc4ccccc34)cc2)cc1 .
Ans. active

Qu. Please share the test call associated with C=C1C(=O)OC2CC3(C)OC3CC/C(C)=C/C(OC(C)=O)C12 (centres undefined) .
Ans. inactive

Qu. Please share the test call associated with O=C(Nc1ccccc1)c1cc2ccccc2c(/N=N/c2ccc([N+](=O)[O-])cc2)c1O .
Ans. inactive

Qu. Please share the test call associated with CCOC(=O)C1=C(C)N(Cc2ccccc2)C2(O)C=CC(=O)C3C(=O)N(c4ccccc4)C(=O)C132 (centres undefined) .
Ans. inactive

---

Test system: HL-60
Procedure details: NCI tumour cell line growth inhibition, 48 h
Calls of active or inactive are those of the source. Rule as the data show it: active = GI50 up to about 1.1 µM and inactive = higher.
Respond only with the outcome that fits, drawn from true = active, false = inactive

{"Molecule": "CO/N=C(\\C)c1ccc(Nc2c3ccccc3nc3occc23)cc1", "System under test": "HL-60", "Assigned category": "true"}
{"Molecule": "Fc1ccc(/N=N/N2CCCC2)cc1", "System under test": "HL-60", "Assigned category": "false"}
{"Molecule": "CC(=O)O[C@H]1CC2C(C3CCC(C(C)CCC(=O)O)[C@]31C)[C@H](OC(C)=O)C[C@@H]1CC3(CC[C@]21C)OOC1(CC[C@]2(C)C4C[C@H](OC(C)=O)[C@]5(C)C(C(C)CCC(=O)O)CCC5C4[C@H](OC(C)=O)C[C@@H]2C1)OO3 (some centres undefined)", "System under test": "HL-60", "Assigned category": "false"}
{"Molecule": "CC[C@@]1(O)C(=O)OCc2c1cc1n(c2=O)Cc2c-1nc1ccccc1c2/C=N/NC(=O)c1ccc(N)cc1", "System under test": "HL-60", "Assigned category": "true"}
{"Molecule": "O=C1C2=C(c3ccccc31)C(c1ccc(F)cc1)N1C(=O)CCSC1=N2 (centres undefined)", "System under test": "HL-60", "Assigned category": "false"}

Qu. Please share the test call associated with O=C1C(Cl)N(c2ccccc2Cl)C1c1c[nH]c2ccccc12 (centres undefined) .
Ans. false

Qu. Please share the test call associated with COC1/C=C/C(C)C(O)CC(O)/C=C/C(C)C(C(C)C(OC)C(C)CCC(=O)C(C)C(C/C=C/N(C)C=O)OC)OC(=O)/C=C/C=C(\C)CC(OC)CC2=CC(=O)O[C@@H](C(C)C(OC)C1)[C@H]2O (some centres undefined) .
Ans. true

Qu. Please share the test call associated with CC(NC1=NCCO1)c1cccs1 (centres undefined) .
Ans. false

---

System: SW-620
Procedure details: NCI tumour cell line growth inhibition, 48 h
Calls of active or inactive are those of the source. No stated cut-off is given here; in the data, active = GI50 up to about 1.1 µM and inactive = higher.
Respond only with the outcome that fits, drawn from active, inactive

{"Compound": "COc1cc(O)c2c(=O)c3c(C)cccc3n(C)c2c1", "System under test": "SW-620", "Assigned category": "inactive"}
{"Compound": "FC(F)(F)c1cccc(COCCN2CCN(Cc3cccc(C(F)(F)F)c3)CC2)c1", "System under test": "SW-620", "Assigned category": "inactive"}
{"Compound": "CO/N=C(\\C)c1ccc(Nc2c3ccccc3nc3occc23)cc1", "System under test": "SW-620", "Assigned category": "active"}
{"Compound": "CC(C)(NC1=NCCO1)c1ccccc1", "System under test": "SW-620", "Assigned category": "inactive"}
{"Compound": "O=C(/C=C\\c1ccccc1)Oc1ccc(/C=C2\\CCC/C(=C\\c3ccc(OC(=O)/C=C\\c4ccccc4)cc3)C2=O)cc1", "System under test": "SW-620", "Assigned category": "inactive"}

Qu. Please share the test call associated with CC1(C)CC(=O)C2=C(C1)NC1=C(C2)C(=O)CC(C)(C)C1 .
Ans. inactive

Qu. Please share the test call associated with CN(Cc1cc(Cl)cc(Cl)c1)CC(C(=O)c1ccccc1)c1ccccc1 (configuration not stated) .
Ans. active

Qu. Please share the test call associated with C=CCn1c(=O)c(C(=O)Nc2nc(C34CC5CC(CC(C5)C3)C4)cs2)c(O)c2ccccc21 .
Ans. inactive

Qu. Please share the test call associated with CC(=O)C(=[N+]=[N-])C(=O)OC(C)(C)C#N .
Ans. inactive

Qu. Please share the test call associated with Nc1nc(S)c2c(N)n[nH]c2c1C(=O)Nc1ccc(Cl)cc1 .
Ans. inactive

Qu. Please share the test call associated with CCOc1ccc2nc(NC(=O)C(=O)C(C(=O)c3ccccc3F)C3OC(=O)c4ccccc43)sc2c1 (configuration not stated) .
Ans. inactive

Qu. Please share the test call associated with CCOC(=O)/C(C(=S)NC)=C(/N)N1CCCC1 .
Ans. inactive

Qu. Please share the test call associated with O=S1OC[C@H](CCCl)O1 (some centres not stated) .
Ans. inactive

Qu. Please share the test call associated with O=C(Cn1c(=O)oc2ccccc21)N(c1ccccc1)c1ccccc1 .
Ans. inactive

Qu. Please share the test call associated with O=C1Nc2ccc(Br)cc2/C1=N/N1C(=O)C(=O)N(C2CCCCC2)C1=S .
Ans. inactive

---

Tested on: HOP-92
Procedure details: NCI tumour cell line growth inhibition, 48 h
The source made the active and inactive calls. No stated cut-off is given here; in the data, active = GI50 up to about 1.1 µM and inactive = higher.
Collected GI50 values appear next to each entry.

{"Molecule": "CCCCC(=O)OC[n+]1ccc(-c2c(COC(=O)NC(C)C)c(COC(=O)NC(C)C)c3n2CCC3)cc1", "GI50": "> 84.1 µM (inactive)"}
{"Molecule": "O=C1C2=C(c3ccccc31)C(c1ccc(F)cc1)N1C(=O)CCSC1=N2 (stereo unspecified)", "GI50": "24.7 µM (inactive)"}

Let us move to another entry and its GI50.
Record summary for C=C1C(=O)OC2C=C(C)CC3C=C(CCC=C(C)CCC12)C(=O)O3 (stereo unspecified) : reported GI50 = 52.8 µM (inactive)

---

Tested on: NCI/ADR-RES
Procedure details: NCI tumour cell line growth inhibition, 48 h
Activity calls are given as the source filed them. No stated cut-off is given here; in the data, active = GI50 up to about 1.1 µM and inactive = higher.
Endpoint label: GI50

Previously resolved entries follow.
{"Molecule": "CCOC(=O)C(C(=O)OCC)C(NC(=O)Nc1cc(C(F)(F)F)ccc1OC)(C(F)(F)F)C(F)(F)F", "System under test": "NCI/ADR-RES", "Endpoint value": "28.6 µM (inactive)"}
{"Molecule": "COc1ccc(OC)c(N(CN2C(=O)CCC2C(=O)O)C(C)=O)c1 (centres undefined)", "System under test": "NCI/ADR-RES", "Endpoint value": "> 100 µM (inactive)"}
{"Molecule": "CC(C)C(/N=C/c1ccccc1O)C(=O)O (centres undefined)", "System under test": "NCI/ADR-RES", "Endpoint value": "> 100 µM (inactive)"}

So the reported GI50 for C1=NN2C(c3ccccc3)=NOC2C2C(c3ccccc3)=NOC12 (centres undefined) , on NCI/ADR-RES, turned out to be 97.9 µM (inactive)
